TESTED_TARGET: nAChRs comprised of α4 and β2 subunits (Rattus norvegicus, UniProt P09483+P12390)
Construct: Cerebral corticies from male Wistar rats (150-250 g) are homogenised; from tissue; host or cells: rat cerebral cortex membranes (male Wistar)
Sequence (P09483 31-630): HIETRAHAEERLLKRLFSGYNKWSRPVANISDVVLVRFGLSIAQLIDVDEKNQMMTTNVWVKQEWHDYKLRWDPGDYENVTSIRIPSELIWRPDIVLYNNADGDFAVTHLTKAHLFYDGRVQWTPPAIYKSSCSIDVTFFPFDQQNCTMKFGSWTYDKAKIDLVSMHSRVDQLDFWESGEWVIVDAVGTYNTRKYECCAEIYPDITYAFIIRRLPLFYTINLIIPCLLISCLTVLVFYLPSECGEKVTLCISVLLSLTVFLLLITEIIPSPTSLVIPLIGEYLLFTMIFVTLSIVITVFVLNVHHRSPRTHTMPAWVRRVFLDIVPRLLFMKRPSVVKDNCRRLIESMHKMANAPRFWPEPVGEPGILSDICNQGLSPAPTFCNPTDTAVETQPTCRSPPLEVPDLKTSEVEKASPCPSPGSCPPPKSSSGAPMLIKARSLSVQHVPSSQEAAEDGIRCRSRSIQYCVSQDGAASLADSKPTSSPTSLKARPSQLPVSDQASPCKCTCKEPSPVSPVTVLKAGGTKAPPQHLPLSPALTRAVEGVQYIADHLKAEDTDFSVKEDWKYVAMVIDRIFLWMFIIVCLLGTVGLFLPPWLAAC
Sequence (P12390 25-500): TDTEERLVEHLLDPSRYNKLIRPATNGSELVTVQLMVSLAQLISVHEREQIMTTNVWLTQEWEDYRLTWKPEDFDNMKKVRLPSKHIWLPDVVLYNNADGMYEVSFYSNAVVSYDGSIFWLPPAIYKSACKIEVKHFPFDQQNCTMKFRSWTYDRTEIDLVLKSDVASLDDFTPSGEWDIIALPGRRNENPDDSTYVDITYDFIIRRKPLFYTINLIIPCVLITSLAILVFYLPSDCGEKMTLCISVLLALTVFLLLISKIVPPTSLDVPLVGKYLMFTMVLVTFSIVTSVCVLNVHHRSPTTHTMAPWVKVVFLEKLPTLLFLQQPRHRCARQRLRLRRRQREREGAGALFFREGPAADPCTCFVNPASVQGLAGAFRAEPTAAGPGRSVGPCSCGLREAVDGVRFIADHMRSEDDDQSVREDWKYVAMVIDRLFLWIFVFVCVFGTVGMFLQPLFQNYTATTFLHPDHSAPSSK
METHOD_NOTES: In vitro inhibition of 3H-cytisine binding (Assay I)
READOUT_LABEL: IC50
Please provide the amount together with its unit, number first.

[Q] Please look up its IC50: Clc1ccc(N2CCC3CCC(C2)N3)nn1 (centres unmarked)
[A] 20 nM

[Q] Lookup CC=COc1cncc(N2CCC3CCC(C2)N3C)c1 (centres unmarked)
[A] 5 nM

[Q] Lookup CN1C2CCC1CN(c1ccc(Cl)nn1)CC2 (centres unmarked)
[A] 1200 nM

[Q] Lookup CC=COc1cncc(N2CCC3CCC(C2)N3)c1 (centres unmarked)
[A] 2 nM

[Q] Lookup COc1cncc(N2C3CCNCC2CC3)c1 (centres unmarked)
[A] 150 nM

---

TESTED_TARGET: nAChRs comprised of α4 and β2 subunits (Rattus norvegicus, UniProt P09483+P12390)
Construct: Cerebral corticies from male Wistar rats (150-250 g) are homogenised; from tissue; host or cells: rat cerebral cortex membranes (male Wistar)
METHOD_NOTES: In vitro inhibition of 3H-cytisine binding (Assay I)
TEST_PARAMETERS: 3H-cytisine 1 nM, rat cerebral cortex homogenate; read-out: Assay I IC50
READOUT_LABEL: pIC50
# reply with the number alone; pIC50 is -log10 of concentration in mol/L

[Q] Hi! What's the reported pIC50 for CCOc1cncc(N2C3CCNCC2CC3)c1 (stereo not drawn) on nAChRs comprised of α4 and β2 subunits (Rattus norvegicus, UniProt P09483+P12390)?
[A] 8.52

[Q] Lookup C=COc1cncc(N2CCC3CCC(C2)N3C)c1 (stereo not drawn)
[A] 8.52

[Q] Lookup C=COc1cncc(N2CCC3CCC(C2)N3)c1.O=C(O)/C=C/C(=O)O (stereo not drawn)
[A] 8.70

[Q] Lookup CCOc1cncc(N2CCC3CCC(C2)N3C)c1 (stereo not drawn)
[A] 8.30

[Q] Lookup CC=COc1cncc(N2C3CCNCC2CC3)c1 (stereo not drawn)
[A] 8.52

---

So I've got a bunch of molecules here, and I need their melting point values.
Counter-ions that a name gives are not always drawn.

[Q] Please look up its melting point: CN1C2CCCC1CN(c1cncc(Br)c1)CC2.O=C(O)/C=C/C(=O)O (centres unmarked)
[A] 162.5 to 164.5 °C

[Q] Lookup C=COc1cncc(N2CCC3CCC(C2)N3)c1.O=C(O)/C=C/C(=O)O (centres unmarked)
[A] 145 to 147 °C

[Q] Lookup CCOc1cncc(N2CCC3CCC(C2)N3)c1.O=C(O)/C=C/C(=O)O (centres unmarked)
[A] 143 to 146 °C

[Q] Lookup CC=COc1cncc(N2CCC3CCC(C2)N3)c1 (centres unmarked) (as salt: fumaric acid salt)
[A] 144 to 146 °C

[Q] Lookup CN1C2CCC1CN(c1cncc(Cl)c1)CC2.O=C(O)/C=C/C(=O)O (centres unmarked)
[A] 181 to 182 °C

[Q] Lookup CCOc1cc(N2CCC3CCC(C2)N3C)cnc1Cl.O=C(O)/C=C/C(=O)O (centres unmarked)
[A] 208.6 °C

[Q] Lookup CC=COc1cncc(N2C3CCNCC2CC3)c1 (centres unmarked) (as salt: fumaric acid salt)
[A] 161.5 to 163 °C

[Q] Lookup COc1cncc(N2C3CCNCC2CC3)c1 (centres unmarked) (as salt: fumaric acid salt)
[A] 183 to 185 °C

Source: patent US6552012B2
